- assay-method-text: Elimination half life in Sprague-Dawley rat at 10 mg/kg, po
- Assay type: ADME, organism-based
- Design: dose 10 mg/kg, route oral
- protocol-conditions: in vivo, read-out: beta t1/2 (converted)
Please enter 1 where half-life is greater than or equal to 4 h, and -1 where it is lower.

Quick check, half-life >= 4 h? CC(C)COc1ccc(-c2ccnc(N)n2)cc1C#N
-1

Item N#Cc1cc(-c2cc(O)nc(N)n2)ccc1OCC1CCCCC1 with half-life of 4 h or above?
1

State whether the measured half-life reaches 4 h, counting equality as reaching it, for CC(C)COc1ccc(-c2cc(=O)[nH]cn2)cc1C#N
1

For this compound, is measured half-life 4 h or higher? COC(=O)C(C)(C)COc1ccc(-c2cc(=O)[nH]c(N)n2)cc1C#N
-1

Answer whether half-life of CC(C)(C)COc1ccc(-c2cc(=O)[nH]c(N)n2)cc1C#N is greater than or equal to 4 h.
1
